# procedure summary: Caspase-3/7 induction in CHO-K1 cells by small molecules, qHTS cell viability counter screen (AID 1346979); also: nearly all actives have a fitted effect of over 35% in size
# test settings: CellTiter-Fluor fluorescence, 17 h; series mostly up to 92.4 µM
Results filed as inconclusive are left out. The source made the active and inactive calls. Calls follow the shape of the dose curve; as a rule, active = well fitted cell-killing curve with a large enough effect in the repeat runs; inconclusive = weak or mixed curves, or effect the other way; inactive = no such curve, though single readings can be large or run the other way.
One label from this list, please: active, inactive

- compound: "CO[C@@]12[C@H](COC(N)=O)C3=C(C(=O)C(C)=C(N)C3=O)N1C[C@@H]1N[C@@H]12"
  class assignment: "active"
- compound: "CCCCN(CCCC)CCCOC(=O)c1ccc(N)cc1"
  class assignment: "inactive"
- compound: "C1COCO1"
  class assignment: "inactive"
- compound: "Cc1oc(C)c(C(=O)Nc2ccccc2)c1C"
  class assignment: "active"
- compound: "Nc1ccc(S(=O)(=O)O)cc1"
  class assignment: "inactive"

Fill in: this test's call for CC(=O)Nc1ccccc1C is ___ inactive

Then this compound: CCN(CC)CCNC(=O)c1ccc(NC(C)=O)cc1 inactive

Then this compound: CCn1cc(C(=O)O)c(=O)c2cc(F)c(N3CCNCC3)nc21 inactive

Then this compound: CCCOCCOCCO inactive
